All figures here come from PubChem BioAssay AID1745844.

- Tested on: rodent lifetime carcinogenesis bioassay, tumor incidence TD50
- protocolDescription: carcinogenic potency in animals, long-term in vivo studies, CPDB compilation (AID 1745844)
- experimentalConditions: rat; strain Fischer 344; males; in drinking water; site: preputial gland; lesion: adenoma + adenoma, bilateral + carcinoma + carcinoma, bilateral; dosed 88 weeks; study length 92 weeks
endpoint: TD50

COc1cc(-c2ccc(N)c(OC)c2)ccc1N; 1.78 mg/kg/day

* * *

- Test system: rodent lifetime carcinogenesis bioassay, tumor incidence TD50
- protocolDescription: carcinogenic potency in animals, long-term in vivo studies, CPDB compilation (AID 1745844)
- experimentalConditions: mouse; strain B6C3F1; females; in feed; site: Harderian gland; lesion: adenoma + adenoma, bilateral; dosed 104 weeks; study length 106 weeks
endpoint: TD50 (mg/kg/day)

OCC(CO)(CBr)CBr; 187

* * *

- System: rodent lifetime carcinogenesis bioassay, tumor incidence TD50
- protocolDescription: carcinogenic potency in animals, long-term in vivo studies, CPDB compilation (AID 1745844)
- experimentalConditions: mouse; strain C57BL/6J; females; in drinking water; site: duodenum; lesion: carcinoma; dosed 100 weeks; study length 100 weeks
endpoint: TD50

OO; 7540 mg/kg/day

* * *

- Tested on: rodent lifetime carcinogenesis bioassay, tumor incidence TD50
- protocolDescription: carcinogenic potency in animals, long-term in vivo studies, CPDB compilation (AID 1745844)
- experimentalConditions: hamster; strain Syrian Golden; females; inhaled; site: stomach; lesion: adenoma; dosed 26 weeks; study length 104 weeks
endpoint: TD50

C=CCl; 47.2 mg/kg/day

* * *

- Tested on: rodent lifetime carcinogenesis bioassay, tumor incidence TD50
- protocolDescription: carcinogenic potency in animals, long-term in vivo studies, CPDB compilation (AID 1745844)
- experimentalConditions: rat; strain Fischer 344; females; in drinking water; site: colon; lesion: one or several types; types not named; dosed 30 weeks; study length 104 weeks
endpoint: TD50

CCN(N=O)C(=O)NCC(C)=O; 1.13 mg/kg/day

* * *

- Test system: rodent lifetime carcinogenesis bioassay, tumor incidence TD50
- protocolDescription: carcinogenic potency in animals, long-term in vivo studies, CPDB compilation (AID 1745844)
- experimentalConditions: mouse; strain B6C3F1; males; inhaled; site: lung; lesion: alveolar/bronchiolar adenoma + alveolar/bronchiolar carcinoma; dosed 103 weeks; study length 104 weeks
endpoint: TD50 (mg/kg/day)

CCc1ccccc1; 1400
ClC(Cl)=C(Cl)Cl; 6050
CC#N; 318

* * *

- Tested on: rodent lifetime carcinogenesis bioassay, tumor incidence TD50
- protocolDescription: carcinogenic potency in animals, long-term in vivo studies, CPDB compilation (AID 1745844)
- experimentalConditions: rat; strain Fischer 344; females; inhaled; site: any site (literature study); lesion: several types; types named in the paper; dosed 103 weeks; study length 104 weeks
The source made the active and inactive calls. How the calls were made is not given here.
endpoint: TD50

C=Cc1cccc(C)c1; 312 mg/kg/day (inactive)
ClC(Cl)=C(Cl)Cl; 869 mg/kg/day
CC1CO1 (centres undefined); 124 mg/kg/day
FC(F)=C(F)F; 287 mg/kg/day

* * *

- Tested on: rodent lifetime carcinogenesis bioassay, tumor incidence TD50
- protocolDescription: carcinogenic potency in animals, long-term in vivo studies, CPDB compilation (AID 1745844)
- experimentalConditions: rat; strain Fischer 344; females; in drinking water; site: liver; lesion: one or several types; types not named; dosed 30 weeks; study length 104 weeks
Here, each record is paired with measured TD50 data.
endpoint: TD50

O=NN(CCO)C(=O)NCCCl; 1.19 mg/kg/day
CCN(N=O)C(=O)NCC(C)=O; 5.53 mg/kg/day

* * *

- Tested on: rodent lifetime carcinogenesis bioassay, tumor incidence TD50
- protocolDescription: carcinogenic potency in animals, long-term in vivo studies, CPDB compilation (AID 1745844)
- experimentalConditions: mouse; strain B6C3F1; females; in feed; site: liver; lesion: hepatocellular adenoma + hepatocellular carcinoma + neoplastic nodule; dosed 104 weeks; study length 106 weeks
endpoint: TD50 (mg/kg/day)

NCCNc1cccc2ccccc12; 25600

* * *

- Test system: rodent lifetime carcinogenesis bioassay, tumor incidence TD50
- protocolDescription: carcinogenic potency in animals, long-term in vivo studies, CPDB compilation (AID 1745844)
- experimentalConditions: rat; strain Fischer 344; females; in feed; site: ear duct; lesion: squamous-cell carcinoma; dosed 52 weeks; study length 52 weeks
endpoint: TD50

Cn1cnc([N+](=O)[O-])c1Sc1ncnc2nc[nH]c12; 10.1 mg/kg/day

* * *

- Test system: rodent lifetime carcinogenesis bioassay, tumor incidence TD50
- protocolDescription: carcinogenic potency in animals, long-term in vivo studies, CPDB compilation (AID 1745844)
- experimentalConditions: rat; strain Sprague-Dawley; males; i.p.; site: peritoneum; lesion: sarcoma, NOS; dosed 52 weeks; study length 83 weeks
endpoint: TD50

CC(COc1ccccc1)N(CCCl)Cc1ccccc1 (stereo unspecified); 0.71 mg/kg/day

* * *

- System: rodent lifetime carcinogenesis bioassay, tumor incidence TD50
- protocolDescription: carcinogenic potency in animals, long-term in vivo studies, CPDB compilation (AID 1745844)
- experimentalConditions: rat; strain Fischer 344; males; by gavage; site: forestomach + liver + stomach; lesion: squamous-cell papilloma + neoplastic nodule + squamous-cell carcinoma; dosed 104 weeks; study length 106 weeks
endpoint: TD50 (mg/kg/day)

ClC=CCCl; 33.2

* * *

- Test system: rodent lifetime carcinogenesis bioassay, tumor incidence TD50
- protocolDescription: carcinogenic potency in animals, long-term in vivo studies, CPDB compilation (AID 1745844)
- experimentalConditions: mouse; strain Swiss albino; females; in drinking water; site: lung; lesion: adenoma; dosed 105 weeks; study length 105 weeks
endpoint: TD50 (mg/kg/day)

C=CCNN; 46.1

* * *

- System: rodent lifetime carcinogenesis bioassay, tumor incidence TD50
- protocolDescription: carcinogenic potency in animals, long-term in vivo studies, CPDB compilation (AID 1745844)
- experimentalConditions: rat; strain Fischer 344; males; in feed; site: thyroid gland; lesion: follicular-cell adenoma + follicular-cell carcinoma; dosed 103 weeks; study length 105 weeks
endpoint: TD50 (mg/kg/day)

CCCOC(=O)c1cc(O)c(O)c(O)c1; 6870

* * *

- Tested on: rodent lifetime carcinogenesis bioassay, tumor incidence TD50
- protocolDescription: carcinogenic potency in animals, long-term in vivo studies, CPDB compilation (AID 1745844)
- experimentalConditions: rat; strain Fischer 344; females; inhaled; site: any site (literature study); lesion: several types; types named in the paper; dosed 104 weeks; study length 104 weeks
Active and inactive are the calls of the source. How the calls were made is not given here.
endpoint: TD50

C=CC(=C)Cl; 25.4 mg/kg/day
O=CCCCC=O; 0.125 mg/kg/day (inactive)

* * *

- Tested on: rodent lifetime carcinogenesis bioassay, tumor incidence TD50
- protocolDescription: carcinogenic potency in animals, long-term in vivo studies, CPDB compilation (AID 1745844)
- experimentalConditions: rat; strain Charles River CD (Sprague-Dawley); females; inhaled; site: liver; lesion: hepatocellular carcinoma; dosed 108 weeks; study length 108 weeks
The source made the active and inactive calls. The rule behind the calls is not given here.
endpoint: TD50

Cc1ccc(N=C=O)cc1N=C=O; 8.24 mg/kg/day (inactive)

* * *

- System: rodent lifetime carcinogenesis bioassay, tumor incidence TD50
- protocolDescription: carcinogenic potency in animals, long-term in vivo studies, CPDB compilation (AID 1745844)
- experimentalConditions: rat; strain Fischer 344; females; by gavage; site: any site (literature study); lesion: several types; types named in the paper; dosed 25 weeks; study length 124 weeks
endpoint: TD50

Brc1cc(Br)c(-c2cc(Br)c(Br)cc2Br)cc1Br; 0.365 mg/kg/day

* * *

- Tested on: rodent lifetime carcinogenesis bioassay, tumor incidence TD50
- protocolDescription: carcinogenic potency in animals, long-term in vivo studies, CPDB compilation (AID 1745844)
- experimentalConditions: mouse; strain Swiss; males; inhaled; site: extrahepatic tissue; lesion: angiosarcoma; dosed 30 weeks; study length 77 weeks
endpoint: TD50 (mg/kg/day)

C=CCl; 8030

* * *

- System: rodent lifetime carcinogenesis bioassay, tumor incidence TD50
- protocolDescription: carcinogenic potency in animals, long-term in vivo studies, CPDB compilation (AID 1745844)
- experimentalConditions: rat; strain F344/DuCrj; males; in drinking water; site: spleen; lesion: mononuclear-cell leukemia; dosed 104 weeks; study length 108 weeks
endpoint: TD50 (mg/kg/day)

CC(=O)OC/C=C(C)/C=C/C=C(C)/C=C/C1=C(C)CCCC1(C)C; 548

* * *

- System: rodent lifetime carcinogenesis bioassay, tumor incidence TD50
- protocolDescription: carcinogenic potency in animals, long-term in vivo studies, CPDB compilation (AID 1745844)
- experimentalConditions: mouse; strain B6C3F1; males; in feed; site: thyroid gland; lesion: adenocarcinoma, NOS + adenoma, NOS + follicular-cell adenoma + follicular-cell carcinoma; dosed 78 weeks; study length 93 weeks
endpoint: TD50

CCOc1ccc(NC(C)=O)cc1N; 2070 mg/kg/day

* * *

- Tested on: rodent lifetime carcinogenesis bioassay, tumor incidence TD50
- protocolDescription: carcinogenic potency in animals, long-term in vivo studies, CPDB compilation (AID 1745844)
- experimentalConditions: rat; strain Wistar; females; in feed; site: mammary gland; lesion: adenocarcinoma; dosed 75 weeks; study length 75 weeks
endpoint: TD50

COc1cc2c(cc1N)oc1ccccc12; 97.7 mg/kg/day
